# ASSAY_COMMENT: Cmax in mouse at 50 mg/kg, sc
# Assay type: ADME, organism-based
# Parameters: dose 50 mg/kg, route subcutaneous
# MEASUREMENT_CONTEXT: in vivo
MEASURED_ATTRIBUTE: Cmax (ng/mL)
Respond numerically; units are ng/mL and should not be typed.

COMPOUND	REPORTED
O=C(O)c1cn(C2CC2)c2cc(N3CCNCC3)c(F)cc2c1=O [CIPROFLOXACIN]	7720

For the compound CC(=O)NCC1CN(c2ccc(N3CCOCC3)c(F)c2)C(=O)O1 (single isomer, unassigned) [LINEZOLID] , give its measured Cmax value.
25500

----------
Reported Tmax is given for each of the following compounds.
# ASSAY_COMMENT: Tmax in mouse at 20 mg/kg, sc
# Format: ADME, organism-based
# Parameters: dose 20 mg/kg, route subcutaneous
# MEASUREMENT_CONTEXT: in vivo
Respond numerically; units are min and should not be typed.

COMPOUND	Tmax [min]
CC(=O)NCC1CN(c2ccc(N3CCOCC3)c(F)c2)C(=O)O1 (single isomer, unassigned)	30

Now let's try a different one.
For the compound O=C(O)c1cn(C2CC2)c2cc(N3CCNCC3)c(F)cc2c1=O , give its measured Tmax value.
30

----------
Reported MIC90 is given for each of the following compounds.
# Tested on: Escherichia coli
# ASSAY_COMMENT: Antibacterial activity against Escherichia coli after 24 hrs by broth microdilution method
# Format: functional
Respond numerically; units are µg/mL and should not be typed.

COMPOUND	REPORTED
C[C@@H](O)[C@H]1C(=O)N2C(C(=O)O)=C(SCCNC=N)C[C@H]12 [IMIPENEM ANHYDROUS]	0.5

For the compound CO/N=C(\C(=O)N[C@@H]1C(=O)N2C(C(=O)O)=C(CSc3nc(=O)c(O)nn3C)CS[C@H]12)c1csc(N)n1 [CEFTRIAXONE] , give its measured MIC90 value.
0.06

For the compound CC(C)(O/N=C(\C(=O)N[C@@H]1C(=O)N2C(C(=O)[O-])=C(C[n+]3ccccc3)CS[C@H]12)c1csc(N)n1)C(=O)O [CEFTAZIDIME] , give its measured MIC90 value.
0.5

----------
# ASSAY_COMMENT: Cmax in mouse at 20 mg/kg, sc
# Format: ADME, organism-based
# Set-up: dose 20 mg/kg, route subcutaneous
# MEASUREMENT_CONTEXT: in vivo
MEASURED_ATTRIBUTE: Cmax (ng/mL)
Respond numerically; units are ng/mL and should not be typed.

MOLECULE	Cmax (ng/mL)
CC(=O)NCC1CN(c2ccc(N3CCOCC3)c(F)c2)C(=O)O1 (single isomer, unassigned) [LINEZOLID]	12200

For the molecule O=C(O)c1cn(C2CC2)c2cc(N3CCNCC3)c(F)cc2c1=O [CIPROFLOXACIN] , give its measured Cmax value.
3360

----------
Reported MIC90 is given for each of the following molecules.
# Test system: Moraxella catarrhalis
# ASSAY_COMMENT: Antibacterial activity against Moraxella catarrhalis after 24 hrs by broth microdilution method
# Assay type: functional
Respond numerically; units are µg/mL and should not be typed.

Sample answers from the record:
MOLECULE	EXPERIMENTAL_SYSTEM	VALUE_UNIT	MIC90
CC[C@H]1OC(=O)[C@H](C)[C@@H](O[C@H]2C[C@@](C)(OC)[C@@H](O)[C@H](C)O2)[C@H](C)[C@@H](O[C@@H]2O[C@H](C)C[C@H](N(C)C)[C@H]2O)[C@](C)(O)C[C@@H](C)CN(C)[C@H](C)[C@@H](O)[C@]1(C)O [AZITHROMYCIN]	Moraxella catarrhalis	µg/mL	0.03
C[C@H]1COc2c(N3CCN(C)CC3)c(F)cc3c(=O)c(C(=O)O)cn1c23.C[C@H]1COc2c(N3CCN(C)CC3)c(F)cc3c(=O)c(C(=O)O)cn1c23.O [LEVOFLOXACIN]	Moraxella catarrhalis	µg/mL	0.06
CO/N=C(\C(=O)N[C@@H]1C(=O)N2C(C(=O)O)=C(CSc3nc(=O)c(O)nn3C)CS[C@H]12)c1csc(N)n1 [CEFTRIAXONE]	Moraxella catarrhalis	µg/mL	1

Now let's try a different one.
For the molecule CC1(C)S[C@@H]2[C@H](NC(=O)[C@H](N)c3ccccc3)C(=O)N2[C@H]1C(=O)O [AMPICILLIN] , give its measured MIC90 value.
8
